# protocol details: Maximum tolerated single bolus dose (MTD) of CB by vehicle and route of administration
# Format: in vivo, CD2F₁ mice
# conditions: mouse, in vivo, iv, CB suspension in carboxymethyl cellulose(1%)/Tween-20 (2%), single bolus, CD2F₁ mice
readout kind: MTD (mg/kg)

>>> value_reported("C=C1C(C)C2C(Cc3ccccc3)NC(=O)C23OC(=O)C=CC(O)CCCC(C)CC=CC3C1O (stereo not shown)")
10

====

# protocol details: Maximum tolerated single bolus dose (MTD) of CB by vehicle and route of administration
# Format: in vivo, CD2F₁ mice
# conditions: mouse, in vivo, iv, in 33% ethanol
readout kind: MTD

>>> value_reported("C=C1C(C)C2C(Cc3ccccc3)NC(=O)C23OC(=O)C=CC(O)CCCC(C)CC=CC3C1O (stereo not shown)")
"10 mg/kg"
